Test system: MOLT-4 leukemia
Experiment: NCI tumour cell line growth inhibition, 48 h
REPORTED METRIC: log10(TGI) (log10 of the value in µM)
Answers are given as log10 of TGI in µM.

Form field: reported log10(TGI) of Fc1ccc(NC(c2ccc(F)cc2)C2CCN(CCCCc3ccccc3)CC2)cc1 (centres undefined)
0.64

Form field: reported log10(TGI) of CCN1CCC(O)(c2ccc([N+](=O)[O-])cc2)C(C(=O)c2ccc([N+](=O)[O-])cc2)C1 (centres undefined)
1.76

Form field: reported log10(TGI) of Cc1cnc(C(=O)NNc2nc3sc4c(c3c(=O)[nH]2)C(C)CCC4)cn1 (centres undefined)
1.13

Form field: reported log10(TGI) of O=C(CCc1cc(O)cc(O)c1)NCCc1cc(O)cc(OCc2ccccc2)c1
1.82

Form field: reported log10(TGI) of O=C(c1ccc(Cl)cc1)N(C(=O)N1CCCCC1)c1ccccc1
1.86

Form field: reported log10(TGI) of COc1ccc(-c2nc3ccc(Cc4ccc5nc(-c6ccc(OC)cc6)[nH]c5c4)cc3[nH]2)cc1
0.11

Form field: reported log10(TGI) of C[C@H]1CC[C@@]2(OC1)O[C@H]1C[C@H]3[C@@H]4CC[C@@H]5C[C@@H](OC6OC(CO)C(O)C(O)C6OC6OC(CO)C(O)C(O)C6O)CC[C@]5(C)[C@H]4CC[C@]3(C)[C@H]1[C@@H]2C (some centres undefined)
0.58

Form field: reported log10(TGI) of CC(=O)Nc1ccc(C2CC(c3ccc([N+](=O)[O-])cc3)=Nc3ccccc3S2=O)cc1 (centres undefined)
1.52
